Numbers sourced from patent US12091426B2.

The molecules listed here are annotated with their Dmax.
biological target: HPK1 (Homo sapiens); construct: A HiBiT tag was introduced by CRISPR on the N terminus of HPK1 in Jurkat cells; host or cells: Jurkat cells (ATCC TIB-152), monoclonal line with CRISPR knock-in of HiBiT at the endogenous HPK1 locus; assay: HPK1 Cellular HiBit Degradation Assay; format: cell-based; settings: Jurkat, HiBiT HPK1 Jurkat cells, 24 hrs; maximum degradation vs DMSO vehicle control; read-out: Dmax Category
Sequence (Q92918 whole entry): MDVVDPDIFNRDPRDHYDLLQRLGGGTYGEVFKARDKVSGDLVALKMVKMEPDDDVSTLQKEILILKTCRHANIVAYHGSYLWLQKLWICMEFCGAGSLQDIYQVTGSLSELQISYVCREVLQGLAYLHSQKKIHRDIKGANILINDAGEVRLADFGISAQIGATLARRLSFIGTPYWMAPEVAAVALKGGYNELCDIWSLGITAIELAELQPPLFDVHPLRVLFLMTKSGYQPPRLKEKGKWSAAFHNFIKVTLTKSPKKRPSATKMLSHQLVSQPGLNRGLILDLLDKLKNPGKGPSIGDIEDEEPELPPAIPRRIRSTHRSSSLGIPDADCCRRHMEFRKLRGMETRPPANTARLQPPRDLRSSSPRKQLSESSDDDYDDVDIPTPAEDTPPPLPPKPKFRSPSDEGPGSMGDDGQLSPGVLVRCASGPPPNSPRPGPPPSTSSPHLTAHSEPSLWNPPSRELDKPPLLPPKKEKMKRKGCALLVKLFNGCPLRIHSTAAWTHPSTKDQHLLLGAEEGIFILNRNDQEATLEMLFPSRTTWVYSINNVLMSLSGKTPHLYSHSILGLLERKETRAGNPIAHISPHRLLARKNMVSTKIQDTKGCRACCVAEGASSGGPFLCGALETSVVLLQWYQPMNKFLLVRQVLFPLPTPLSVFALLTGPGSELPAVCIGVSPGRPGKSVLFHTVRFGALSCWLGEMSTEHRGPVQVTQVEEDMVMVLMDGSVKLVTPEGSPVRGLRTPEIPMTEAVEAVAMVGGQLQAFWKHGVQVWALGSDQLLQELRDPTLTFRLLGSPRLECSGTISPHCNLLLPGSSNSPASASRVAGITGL

Molecule	Dmax
CC(C)n1cnc2cc(-c3ccc4c(c3)N([C@H]3C[C@@H](N5CCCCC5)C3)C(=O)C43CCN(C(=O)C4CCN(C(=O)C5CCN(c6ccc(C7CCC(=O)NC7=O)cn6)CC5)C5(CC5)C4)CC3)nc(NC3CC3)c21 (mixture of isomers)	70 to 85%
CC(C)n1cnc2cc(-c3ccc4c(c3)N(C3CC(N5CCCCC5)C3)C(=O)C43CCN(CC(=O)N4CCN(C(=O)C5CCN(c6ccc(C7CCC(=O)NC7=O)cn6)CC5)CC4)CC3)nc(NC3CC3)c21 (stereo not shown)	> 85%
CC(C)n1cnc2cc(-c3ccc4c(c3)N([C@H]3C[C@@H](N5CCCCC5)C3)C(=O)C43CCN(S(=O)(=O)C4CCN(C(=O)C5CCN(c6ccc(C7CCC(=O)NC7=O)cn6)CC5)CC4)CC3)nc(NC3CC3)c21 (mixture of isomers)	> 85%
CC(C)n1cnc2cc(-c3ccc4c(c3)N([C@H]3C[C@@H](N5CCCCC5)C3)C(=O)C43CCN(C(=O)N4CCN(C(=O)C5CCN(c6ccc(C7CCC(=O)NC7=O)cn6)CC5)CC4)CC3)nc(NC3CC3)c21 (stereo partly shown)	70 to 85%
